Would you kindly list Activation (%) for each of these molecules?
# assay system: MRGPRX4 (Homo sapiens, UniProt Q96LA9)
# Sequence (Q96LA9 whole entry): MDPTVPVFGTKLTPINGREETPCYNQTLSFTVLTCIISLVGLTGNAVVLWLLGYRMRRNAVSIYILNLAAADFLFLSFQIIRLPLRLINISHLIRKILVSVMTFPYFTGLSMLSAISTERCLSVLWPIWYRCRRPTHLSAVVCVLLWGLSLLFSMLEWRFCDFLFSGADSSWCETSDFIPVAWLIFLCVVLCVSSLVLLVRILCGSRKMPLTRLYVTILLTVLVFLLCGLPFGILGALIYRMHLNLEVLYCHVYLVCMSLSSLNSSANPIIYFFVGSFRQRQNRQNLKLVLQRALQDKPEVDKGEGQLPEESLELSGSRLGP
# test summary: MRGPRX4 activation, Fluo-8 Ca2+ FLIPR assay in HEK293T cells stably expressing MRGPRX4
# Type: cell-based
# details: second E3-8-1, 14 nM, n = 1

Solved cases (2 shown):
molecule: CC[C@H]1[C@@H](O)[C@@H]2[C@H](CC[C@]3(C)[C@@H]([C@H](C)COC(=O)NS(=O)(=O)c4ccc(N5CCCCC5)nc4)CC[C@@H]23)[C@@]2(C)CCCC[C@@H]12 [18-3]
Activation (%): 2.86%
//
molecule: CC[C@H]1[C@@H](O)[C@@H]2[C@H](CC[C@]3(C)[C@@H]([C@H](C)CNC(=O)NS(=O)(=O)c4ccc(N5CCCCC5)nc4)CC[C@@H]23)[C@@]2(C)CCCC[C@@H]12 [20-3]
Activation (%): 3.48%

Please state, for each entry, its recorded Activation (%).
1. CC[C@H]1[C@@H](O)[C@@H]2[C@H](CC[C@]3(C)[C@@H]([C@H](C)COC(=O)NS(=O)(=O)c4ccc(C(C)(C)CF)cc4)CC[C@@H]23)[C@@]2(C)CCCC[C@@H]12 [18-1]
2. CC[C@H]1[C@@H](O)[C@@H]2[C@H](CC[C@]3(C)[C@@H]([C@H](C)COC(=O)NS(=O)(=O)c4ccc5c(c4)CCC(C)(C)O5)CC[C@@H]23)[C@@]2(C)CCCC[C@@H]12 [18-2]

1: 2.86%; 2: 3.79%

Origin of the recorded values: patent US20260116910A1
